The measured values listed here are drawn from patent US20200231684A1.

Molecular target: T1, human IL-36R on cells (human, UniProt Q9HB29 20-575)
T1 sequence (looked up): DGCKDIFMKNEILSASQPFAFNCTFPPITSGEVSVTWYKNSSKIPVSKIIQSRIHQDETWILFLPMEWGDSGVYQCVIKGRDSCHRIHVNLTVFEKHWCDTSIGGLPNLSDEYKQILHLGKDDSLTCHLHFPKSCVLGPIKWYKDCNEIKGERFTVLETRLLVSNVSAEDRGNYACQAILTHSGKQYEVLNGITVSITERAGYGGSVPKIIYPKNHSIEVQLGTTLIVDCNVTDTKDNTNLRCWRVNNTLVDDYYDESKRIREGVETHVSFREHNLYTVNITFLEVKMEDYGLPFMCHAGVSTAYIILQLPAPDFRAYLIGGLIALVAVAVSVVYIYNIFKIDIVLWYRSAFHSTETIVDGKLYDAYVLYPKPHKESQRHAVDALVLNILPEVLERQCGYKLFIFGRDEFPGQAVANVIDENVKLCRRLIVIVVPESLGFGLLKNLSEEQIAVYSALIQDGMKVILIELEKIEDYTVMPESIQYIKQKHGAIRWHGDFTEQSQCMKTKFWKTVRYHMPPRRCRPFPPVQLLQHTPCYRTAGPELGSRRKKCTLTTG
Assay: cell-based or functional assay
observedProperty: IC90, IL-6 release, NCI/ADR-RES cells, trun-IL-36b (nM)

binder: antibody 73C5 (antibody, V domains shown, Mouse monoclonal from hybridoma; also called 73C5C10; Mouse 73C5) VH: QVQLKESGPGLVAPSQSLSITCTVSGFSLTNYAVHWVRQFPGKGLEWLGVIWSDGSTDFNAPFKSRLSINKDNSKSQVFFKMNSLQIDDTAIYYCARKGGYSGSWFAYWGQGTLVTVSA VL: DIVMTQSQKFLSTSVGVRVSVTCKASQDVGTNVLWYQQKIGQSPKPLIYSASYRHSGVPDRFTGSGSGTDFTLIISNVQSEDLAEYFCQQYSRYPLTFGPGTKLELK
measValue: 3.8

binder: antibody 81A1 (antibody, V domains shown, Mouse monoclonal from hybridoma; also called 81A1D1; Mouse 81A1) VH: QVQLKESGPGLVAPSQSLFITCTVSGFSLSSYEINWVRQVPGKGLEWLGVIWTGITTNYNSALISRLSISKDNSKSLVFLKMNSLQTDDTAIYYCARGTGTGFYYAMDYWGQGTSVTVSS VL: DIQMTQTTSSLSASLGDRVTISCRASQDIYKYLNWYQQKPDGTLKLLIYYTSGLHSGVPSRFSGSGSGTDFSLTISNLEPEDIATYFCQQDSKFPWTFGGDTKLEIK
measValue: 5.3
